tested on: MCF10A; assay: 5+ nucleoli phenotype percent effect (relative to siNT 0% and siKIF11 100%); higher = more cells with five or more nucleoli; conditions: 20 nM; 72 h
Parameter measured: 5+ nucleoli phenotype percent effect (%)
Numbers only; they are read as %.

Example entries begin here.
# Record sequence, 5+ nucleoli phenotype percent effect [%]
measured = [
    ("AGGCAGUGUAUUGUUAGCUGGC [hsa-miR-449b-5p]", 36.8),
    ("CUCUAGAGGGAAGCACUUUCUG [hsa-miR-518d-5p]", 5.06),
]

Consider CAGGGAGAAGGUGGAAGUGCAGA [hsa-miR-6760-5p] . Its measured 5+ nucleoli phenotype percent effect is 29.9

Consider CAGCACCCUGUGGCUCCCACAG [hsa-miR-6871-3p] . Its measured 5+ nucleoli phenotype percent effect is 26.8

Consider UGGGGGAGCCAUGAGAUAAGAGCA [hsa-miR-4723-5p] . Its measured 5+ nucleoli phenotype percent effect is 2.14

Consider ACUGGGUAGGUGGGGCUCCAGG [hsa-miR-6861-5p] . Its measured 5+ nucleoli phenotype percent effect is -15.5

Consider AGCGCGGGCUGAGCGCUGCCAGUC [hsa-miR-2277-5p] . Its measured 5+ nucleoli phenotype percent effect is -22.4

Consider UCGACCGGACCUCGACCGGCU [hsa-miR-1307-5p] . Its measured 5+ nucleoli phenotype percent effect is 13.2

Consider UGGACCUCUCCUCCCCAG [hsa-miR-6861-3p] . Its measured 5+ nucleoli phenotype percent effect is 7.71

Provenance of the data: the supplement of paper PMC10899765
